test system: E13 (patient-derived glioblastoma stem cells of classical subtype); assay: phenotypic distance (Euclidean, principal components) from DMSO controls (arbitrary units); higher = stronger morphological change; conditions: 37 nM; exposure time: 72 h
Returns one of t or f; t when phenotypic distance is >= 0.7.

-- ask Can N=C(NCCCCCCNC(=N)NC(=N)Nc1ccc(Cl)cc1)NC(=N)Nc1ccc(Cl)cc1 [Chlorhexidine] be said to have phenotypic distance at or above 0.7?
-- reply f

-- ask Confirm if phenotypic distance reported for the molecule CC1(C)S[C@@H]2[C@H](NC(=O)Cc3ccccc3)C(=O)N2[C@H]1C(=O)O [Benzylpenicillin sodium] is 0.7 or above.
-- reply f

-- ask Decide: phenotypic distance of COc1cccc2c1C(=O)c1c(O)c3c(c(O)c1C2=O)C[C@@](O)(C(=O)CO)C[C@@H]3O[C@H]1C[C@H](N)[C@H](O[C@@H]2CCCCO2)[C@H](C)O1 [Pirarubicin] >= 0.7?
-- reply t

-- ask // inclusive: phenotypic distance at least 0.7? input: COC(=O)C[C@](O)(CCCC(C)(C)O)C(=O)O[C@@H]1C(OC)=C[C@]23CCCN2CCc2cc4c(cc2[C@H]13)OCO4 [Homoharringtonine]
-- reply t

-- ask For this molecule, is measured phenotypic distance 0.7 or higher? C=C(C)[C@H]1Cc2c(ccc3c2O[C@@H]2COc4cc(OC)c(OC)cc4[C@@H]2C3=O)O1 [Rotenone]
-- reply t

* * *

I'd be grateful if you could share measured surviving fraction for these entries.
tested on: E57 (patient-derived glioblastoma stem cells of mesenchymal subtype); experiment: surviving fraction (nuclei count normalised to DMSO); higher = more cells surviving (less toxic); conditions: 4.1 nM; exposure time: 72 h
Structures can show the parent of a compound that is named as a salt.
Give the figure only, with no unit attached.

-- ask Give reported surviving fraction value for COc1c(N2CCNC(C)C2)c(F)cc2c(=O)c(C(=O)O)cn(C3CC3)c12 (stereo unspecified) [Gatifloxacin]
-- reply 0.966

-- ask Please report the measured surviving fraction for CCN1CCN(C(=O)Cc2ccc(Nc3ncc(F)c(Nc4ccc(C(=O)Nc5ccccc5Cl)cc4)n3)cc2)CC1 [Aurora-A Inhibitor I]
-- reply 0.996

-- ask Please report surviving fraction for the following molecule: COc1cccc2c1C(=O)c1c(O)c3c(c(O)c1C2=O)C[C@@](O)(C(=O)CO)C[C@@H]3O[C@H]1C[C@H](N)[C@H](O)[C@H](C)O1 [Doxorubicin hydrochloride]
-- reply 0.74

-- ask Indicate the recorded surviving fraction value for this molecule: Clc1ccc(CSC(Cn2ccnc2)c2ccc(Cl)cc2Cl)cc1 (stereo unspecified) [Sulconazole nitrate]
-- reply 0.975

-- ask Note down surviving fraction recorded for CCCCCCCCCCCCCC(=O)O[C@@H]1[C@@H](C)[C@@]2(O)[C@@H](C=C(CO)C[C@]3(O)C(=O)C(C)=C[C@@H]23)[C@@H]2C(C)(C)[C@]12OC(C)=O [Phorbol 12-myristate 13-acetate]
-- reply 0.331

-- ask Consider the molecule "C[C@H](NC(=O)[C@@H](O)c1cc(F)cc(F)c1)C(=O)N[C@@H]1C(=O)N(C)c2ccccc2-c2ccccc21" and give its recorded surviving fraction.
-- reply 0.906

* * *

system: E34 (patient-derived glioblastoma stem cells of proneural subtype); assay: phenotypic distance (Euclidean, principal components) from DMSO controls (arbitrary units); higher = stronger morphological change; details: 37 nM; exposure time: 72 h
Where a name gives a salt, the structure may show the parent alone.
Tag: Y if measured phenotypic distance is not below 0.9, N if it is.

-- ask // inclusive: phenotypic distance at least 0.9? input: "CN1C(=O)OC(C)(C)C1=O"
-- reply N

-- ask Exam item: decide whether the reported phenotypic distance for "CNc1ccc2oc(C[C@H]3O[C@@]4(CC[C@H]3C)O[C@H]([C@H](C)C(=O)c3ccc[nH]3)[C@H](C)C[C@H]4C)nc2c1C(=O)O" is at least 0.9.
-- reply Y

-- ask Say whether Nc1ncn(C2OC(CO)C(O)C2O)c(=O)n1 (stereo unspecified) shows phenotypic distance of 0.9 or more.
-- reply N

-- ask // inclusive: phenotypic distance at least 0.9? input: "CC(C)CC(=O)N[C@H](C(=O)N[C@H](C(=O)N[C@@H](CC(C)C)[C@@H](O)CC(=O)N[C@@H](C)C(=O)N[C@@H](CC(C)C)[C@@H](O)CC(=O)O)C(C)C)C(C)C"
-- reply N

-- ask API: above_or_equal(metric=phenotypic distance, cutoff=0.9) for item "Oc1ccc(OCc2ccccc2)cc1"
-- reply Y

-- ask Does phenotypic distance meet or surpass 0.9 for "CCn1c(-c2nonc2N)nc2cnc(Oc3cccc(NC(=O)c4ccc(OCCN5CCOCC5)cc4)c3)cc21" ?
-- reply Y

-- ask Please indicate if the recorded phenotypic distance for "C/C=C1\NC(=O)[C@H]2CSSCC/C=C/[C@H](CC(=O)N[C@H](C(C)C)C(=O)N2)OC(=O)[C@H](C(C)C)NC1=O" meets or exceeds 0.9.
-- reply Y

-- ask Reported phenotypic distance at or above 0.9? "Cc1ccc(NC(=O)c2ccc3c(c2)OCCO3)cc1NC(=O)c1ccc2nc(OCCN3CCCC3)ccc2c1"
-- reply Y

-- ask Determine whether this compound has phenotypic distance no lower than 0.9: COc1cc(N)c(Cl)cc1C(=O)NC1CCN(CCCOc2ccc(F)cc2)CC1OC (stereo unspecified) [Cisapride]
-- reply N

-- ask API: above_or_equal(metric=phenotypic distance, cutoff=0.9) for item CCC(C)n1ncn(-c2ccc(N3CCN(c4ccc(OCC5COC(Cn6cncn6)(c6ccc(Cl)cc6Cl)O5)cc4)CC3)cc2)c1=O (stereo unspecified)
-- reply N

-- ask Entry CCCCC1C(=O)N(c2ccccc2)N(c2ccc(O)cc2)C1=O (stereo unspecified) : is its phenotypic distance no less than 0.9?
-- reply N

-- ask Check the entry CC(C)NCC(O)c1ccc(O)c(O)c1 (stereo unspecified) [Isoproterenol hydrochloride] : does phenotypic distance equal or exceed 0.9?
-- reply N

-- ask Is phenotypic distance for "N=C(NCCCCCCNC(=N)NC(=N)Nc1ccc(Cl)cc1)NC(=N)Nc1ccc(Cl)cc1" at or above 0.9?
-- reply N

-- ask Could you verify whether the entry "Cc1ccc(S(=O)(=O)/C=C/C#N)cc1" shows phenotypic distance of no less than 0.9?
-- reply N

-- ask Hi, just wondering whether CN(C)C(=O)Oc1ccc[n+](C)c1 [Pyridostigmine iodide] shows phenotypic distance of 0.9 or higher.
-- reply Y

* * *

system: FT3469 (normal neural stem cell line); assay: phenotypic distance (Euclidean, principal components) from DMSO controls (arbitrary units); higher = stronger morphological change; details: 333.333 nM; exposure time: 72 h
Field: phenotypic distance. Provide a value for each of the compounds that follow.
Returns: the value as a bare number; no unit string appended.

-- ask Return phenotypic distance (reported value) for this compound: "COC(=O)Nc1nc2cc(C(=O)c3cccs3)ccc2[nH]1"
-- reply 3.84

-- ask Tell me its phenotypic distance given "Cc1cc(C)c(CN2CCc3c(Cl)cc(-c4c(C)noc4C)c(Cl)c3C2=O)c(=O)[nH]1" as the entry.
-- reply 1.74

-- ask Give the reported phenotypic distance for this compound. "OCCN1C[C@H](O)[C@@H](O)[C@H](O)[C@H]1CO"
-- reply 0.996

-- ask Let me know recorded phenotypic distance for "CC(C)C[C@H](NC(=O)[C@H](Cc1ccccc1)NC(=O)c1cnccn1)B(O)O" , thanks.
-- reply 7.22

-- ask Provide measured phenotypic distance value, entry: "O=[N+]([O-])c1ccc2c(c1)S(=O)(=O)C=C2"
-- reply 1.92

-- ask Given COc1cc([C@@H]2c3cc4c(cc3[C@@H](O[C@@H]3O[C@@H]5CO[C@@H](C)O[C@H]5[C@H](O)[C@H]3O)[C@H]3COC(=O)[C@H]23)OCO4)cc(OC)c1O [Etoposide] , respond with its phenotypic distance.
-- reply 1.54

* * *

system: E13; test: surviving fraction (nuclei count normalised to DMSO); higher = more cells surviving (less toxic); settings: 4.1 nM; exposure time: 72 h
Counter-ions that a name gives are not always drawn.
observation.type: surviving fraction
The answer should be written as a number, with no unit following it.

-- ask Provide only the value of recorded surviving fraction for CN1[C@@H]2CC[C@H]1CC(OC(=O)c1c[nH]c3ccccc13)C2 (some centres undefined) [3-Tropanyl-indole-3-carboxylate hydrochloride]
-- reply 1.02

-- ask Indicate the recorded surviving fraction value for this compound: "Nc1ccc(-c2ccc3ncc4ccc(=O)n(-c5cccc(C(F)(F)F)c5)c4c3c2)cn1"
-- reply 0.816

-- ask Give me measured surviving fraction, please, for this compound: COc1ccc(/C=C\c2cc(OC)c(OC)c(OC)c2)cc1OP(=O)(O)O [Fosbretabulin Disodium]
-- reply 0.8

-- ask Supply measured surviving fraction of "Cc1ccc(NC(=O)c2ccc3c(c2)OCCO3)cc1NC(=O)c1ccc2nc(OCCN3CCCC3)ccc2c1" in your reply.
-- reply 0.567

-- ask Give the reported value of surviving fraction for this record: CC1(C(=O)O)C2CCC(O2)C1(C)C(=O)O (centres undefined)
-- reply 0.839

-- ask In one line, give reported surviving fraction of the entry "Nc1ncnc2c1c(-c1ccc(Oc3ccccc3)cc1)cn2C1CCCC1" .
-- reply 0.996

-- ask Recall and state the measured surviving fraction for "S=c1[nH]cnc2nc[nH]c12" .
-- reply 0.921

-- ask Provide only the value of recorded surviving fraction for "NCCCP(=O)(O)O"
-- reply 0.801

-- ask Specify reported surviving fraction for the compound shown: "CCN(CC)Cc1ccc(C(=O)N(CCc2ccccc2OC)[C@@H]2CCNC2)cc1"
-- reply 1.08
